target: GSK-3α/β; test: GSK-3α/β in vitro kinase assay (GS-1 peptide); conditions: 15 μM ATP, 30 min at 30 °C, triplicate; >10 = less than 50% inhibition at 10 µM
observation type: IC50

• COc1cc2nc(Nc3ccc4ncn(C5CC5)c(=O)c4c3)sc2cc1OC [Compound 10l] = ≥ 10000 nM
• O=c1c2c(ccc3nc(NCc4ccccc4)sc32)ncn1C1CC1 [Compound 14a] = > 10000 nM
• CN(C)CCNc1nc2ccc3ncn(C4CC4)c(=O)c3c2s1 [Compound 14b] = ≥ 10000 nM
• O=c1c2c(ccc3nc(NCCN4CCCCC4)sc32)ncn1C1CC1 [Compound 14c] = ≥ 10000 nM
• N=C(c1nc2ccc3ncn(C4CC4)c(=O)c3c2s1)N1CCOCC1 [Compound 17e] = 230 nM
• CN(C)CC/N=C(\N)c1nc2ccc3ncn(C4CC4)c(=O)c3c2s1 [Compound 17b] = 1100 nM
• O=c1c2c(ccc3nc(Nc4ccccc4)sc32)ncn1C1CC1 = ≥ 10000 nM
• O=c1c2c(ccc3nc(NCCN4CCOCC4)sc32)ncn1C1CC1 [Compound 14d] = ≥ 10000 nM
• N=C(c1nc2ccc3ncn(C4CC4)c(=O)c3c2s1)N1CCCCC1 [Compound 17f] = 490 nM
• N=C(NCc1ccccc1)c1nc2ccc3ncn(C4CC4)c(=O)c3c2s1 [Compound 17a] = 400 nM
• O=c1c2c(ccc3nc(Nc4cccnc4)sc32)ncn1C1CC1 = ≥ 10000 nM

----------
// reported IC50 per item
target: GSK-3α/β; test: GSK-3α/β in vitro kinase assay (GS-1 peptide); settings: 15 μM ATP, 30 min at 30 °C, triplicate; >10 = less than 50% inhibition at 10 µM
observation type: IC50

- O=c1c2c(ccc3nc(N4CCCCC4)sc32)ncn1C1CC1 [Compound 14e]: ≥ 10 µM
- COc1ccc2c(c1)[nH]c1c(C)nccc12 [Harmine, reference compound]: > 10 µM
- O=c1c2cc(Nc3nc4ccccc4s3)ccc2ncn1C1CC1 [Compound 10a]: ≥ 10 µM
